Assay: Rat serum stability studies (remaining active peptide by DiscoveRx cAMP on CHO-VPAC2 cells)
Format: in vitro ADME
Procedure: Store the aliquot with aprotinin at 4° C. Store the aliquot without aprotinin at 37° C. […] […] Incubate in room temperature for 30 minutes. Remove the supernatant. […] Incubate on the shaker (300 rpm) for 1 hour. Proceed as normal with the DiscoveRx kit. Include cAMP standards in column 12. Determine EC50 values from the cAMP assay data.
Where no end group is shown, it is not given here. [ ]: non-standard residue; d: D form. The star is where a group is joined. hArg = N=C(N)NCCCC[C@H](N)C(=O)O; Nle = CCCC[C@H](N)C(=O)O; Orn = NCCC[C@H](N)C(=O)O; Hexanoyl = CCCCCC(=O)*; Aib = CC(C)(N)C(=O)O
Reported values of Rat Serum Stability (estimated purity in % after 18 hours) for individual entries

Please review the following examples before continuing.
Substance	Result
Hexanoyl-HSDAVFTDNYTRL[hArg][Aib]QVAA[Aib]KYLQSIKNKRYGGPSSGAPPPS [Agonist P316]	15.06%
Hexanoyl-HSEAVFTENYTRLR[Aib]QVAA[Aib]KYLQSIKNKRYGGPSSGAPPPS [Agonist P314]	8.44%
Hexanoyl-HSDAVFTDNYTRLQKQVAAKQYLQSIKNKRYGGPSSGAPPPS [Agonist P253]	1.27%
Hexanoyl-HSDAVFTDNYT[Aib]LR[Aib]QVAA[Aib]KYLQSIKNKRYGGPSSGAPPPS [Agonist P345]	20.23%

Measured Rat Serum Stability (estimated purity in % after 18 hours), Hexanoyl-HSD[dA]VFTDNYTRLRKQVAAKKYLQSIKNKRYGGPSSGAPPPS [Agonist P207] : <0.29%

Measured Rat Serum Stability (estimated purity in % after 18 hours), Hexanoyl-HSDLVFTDNYTRLRKQVAAKKYLQSIKNKRYGGPSSGAPPPS [Agonist P223] : 1.52%

Measured Rat Serum Stability (estimated purity in % after 18 hours), Hexanoyl-HSDAVFTDNYTRLRKQVAAIKYLQSIKNKRYGGPSSGAPPPS [Agonist P149] : 0.29%

Measured Rat Serum Stability (estimated purity in % after 18 hours), Hexanoyl-HSDAVFTDNYTRLRKQVAALKYLQSIKNKRYGGPSSGAPPPS [Agonist P151] : 0.35%

Measured Rat Serum Stability (estimated purity in % after 18 hours), Hexanoyl-HSDAVFTDNYTRLR[Aib]QVAAAKYLQSIKNKRYGGPSSGAPPPS [Agonist P263] : 11.72%

Measured Rat Serum Stability (estimated purity in % after 18 hours), Hexanoyl-HSDAVFTDNYTRLRAQVAAKKYLQSIKNKRYGGPSSGAPPPS [Agonist P139] : 0.33%

Measured Rat Serum Stability (estimated purity in % after 18 hours), Hexanoyl-HSDAVFTDNYTRLR[Aib]QVAA[Aib]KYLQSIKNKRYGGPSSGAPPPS [Agonist P261] : 27.06%

Measured Rat Serum Stability (estimated purity in % after 18 hours), Hexanoyl-HSDAVFTDNYTRLA[Aib]QVAA[Aib]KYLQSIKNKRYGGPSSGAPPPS [Agonist P301] : 6.86%

Measured Rat Serum Stability (estimated purity in % after 18 hours), Hexanoyl-HSD[Aib]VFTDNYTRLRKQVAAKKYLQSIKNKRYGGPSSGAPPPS [Agonist P209] : 0.13%

Measured Rat Serum Stability (estimated purity in % after 18 hours), Hexanoyl-HSDAVFTDNYT[Orn]LR[Aib]QVAA[Aib]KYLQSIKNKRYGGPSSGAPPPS [Agonist P344] : 50.19%

Measured Rat Serum Stability (estimated purity in % after 18 hours), Hexanoyl-HSDAVFTDNYTRLRKQVAAKQYLQSIKNKRYGGPSSGAPPPS [Agonist P183] : 0.18%

Measured Rat Serum Stability (estimated purity in % after 18 hours), Hexanoyl-HSDAVFTDNYTRLR[Aib]Q[Nle]AA[Aib]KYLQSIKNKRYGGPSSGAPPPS [Agonist P325] : 13.13%
